meta.source: patent US9217015B2

Assay type: physicochemical
assay-context: MeOH, 50° C., 77 hrs
Numbered stars: 1 amine (or outer) side, 2 acyl side, 3 side chain; on linkers, the order of the positions; unused ones are H or OH. Square brackets hold non-standard residues; d marks the D form. Peptide text beside a SMILES is read from it. ξ: configuration not given here. MeBmt = C/C=C/C[C@@H](C)[C@@H](O)[C@H](NC)C(=O)O; X1 = CN([C@H](SCCCN1CCOCC1)C(=O)[*:2])[*:1]; X2 = CCN(CC)CCCS[C@H](C(=O)[*:2])N(C)[*:1]; X3 = CCN(CC)CCS[C@H](C(=O)[*:2])N(C)[*:1]; NMeIle(3ξ) = CCC(C)[C@H](NC)C(=O)O; NMeL = CN[C@@H](CC(C)C)C(=O)O; NMeV = CN[C@H](C(=O)O)C(C)C; Abu = CC[C@H](N)C(=O)O
Kindly state Epimerization in MeOH at 50° C. for each of the entries shown.

compound: C/C=C/C[C@@H](C)[C@@H](O)[C@H]1C(=O)N[C@@H](CC)C(=O)N(C)[C@H](SCCCN2CCOCC2)C(=O)N(C)[C@@H](C(C)CC)C(=O)N[C@@H](C(C)C)C(=O)N(C)[C@@H](CC(C)C)C(=O)N[C@@H](C)C(=O)N[C@H](C)C(=O)N(C)[C@@H](CC(C)C)C(=O)N(C)[C@@H](CC(C)C)C(=O)N(C)[C@@H](C(C)C)C(=O)N1C (some centres unmarked) (cyclo(A[dA][NMeL][NMeL][NMeV][MeBmt][Abu][X1][NMeIle(3ξ)]V[NMeL]))
Epimerization in MeOH at 50° C.: 0%

compound: C/C=C/C[C@@H](C)[C@@H](O)[C@H]1C(=O)N[C@@H](CC)C(=O)N(C)[C@H](SCCCN(CC)CC)C(=O)N(C)[C@@H](C(C)CC)C(=O)N[C@@H](C(C)C)C(=O)N(C)[C@@H](CC(C)C)C(=O)N[C@@H](C)C(=O)N[C@H](C)C(=O)N(C)[C@@H](CC(C)C)C(=O)N(C)[C@@H](CC(C)C)C(=O)N(C)[C@@H](C(C)C)C(=O)N1C (some centres unmarked) (cyclo(A[dA][NMeL][NMeL][NMeV][MeBmt][Abu][X2][NMeIle(3ξ)]V[NMeL]))
Epimerization in MeOH at 50° C.: 0%

compound: C/C=C/C[C@@H](C)[C@@H](O)[C@H]1C(=O)N[C@@H](CC)C(=O)N(C)[C@H](SCCN(C)C)C(=O)N(C)[C@@H](CC(C)C)C(=O)N[C@@H](C(C)C)C(=O)N(C)[C@@H](CC(C)C)C(=O)N[C@@H](C)C(=O)N[C@H](C)C(=O)N(C)[C@@H](CC(C)C)C(=O)N(C)[C@@H](CC(C)C)C(=O)N(C)[C@@H](C(C)C)C(=O)N1C [drawing 58, reference compound]
Epimerization in MeOH at 50° C.: 31.8%

compound: C/C=C/C[C@@H](C)[C@@H](O)[C@H]1C(=O)N[C@@H](CC)C(=O)N(C)[C@H](SCCCN(CC)CC)C(=O)N(C)[C@@H](C(C)C)C(=O)N[C@@H](C(C)C)C(=O)N(C)[C@@H](CC(C)C)C(=O)N[C@@H](C)C(=O)N[C@H](C)C(=O)N(C)[C@@H](CC(C)C)C(=O)N(C)[C@@H](CC(C)C)C(=O)N(C)[C@@H](C(C)C)C(=O)N1C (cyclo(A[dA][NMeL][NMeL][NMeV][MeBmt][Abu][X2][NMeV]V[NMeL]))
Epimerization in MeOH at 50° C.: 0%

# next compound below
Complete the entry with Epimerization in MeOH at 50° C. for C/C=C/C[C@@H](C)[C@@H](O)[C@H]1C(=O)N[C@@H](CC)C(=O)N(C)[C@H](SCCN(CC)CC)C(=O)N(C)[C@@H](C(C)CC)C(=O)N[C@@H](C(C)C)C(=O)N(C)[C@@H](CC(C)C)C(=O)N[C@@H](C)C(=O)N[C@H](C)C(=O)N(C)[C@@H](CC(C)C)C(=O)N(C)[C@@H](CC(C)C)C(=O)N(C)[C@@H](C(C)C)C(=O)N1C (some centres unmarked) [reference compound] (cyclo(A[dA][NMeL][NMeL][NMeV][MeBmt][Abu][X3][NMeIle(3ξ)]V[NMeL]))
10.4%
